- Test Method Notes: soluble on expression in E. coli; label from the status in PepcDB or PDB records

{"Sequence Text": "MTKVQKRLFEVADKQYALFQAKLIPNIPQERVIGVRVPVLRKIAREFEKEPECRDFLNTLPHAYYDENMLHSILLSNVKNYEECIAAVEAFLPYVDNWAVCDTLRPKVFGKHKDKLLPRIKDWIASDKTYTCRFGIGMLMMHYLDKDFKPEYLELPQKVDSEEYYVKMMIAWFYATALANQWDATIPYIEEHRLSDWVHKKTIQKACESYRITDEQKAYLKTLR", "soluble on expression in E. coli": "not soluble"}
{"Sequence Text": "GHLYLVPTPIGNLDDMTFRAVKTLTAVDLIAAEDTRNTQKLLNHFEITTKQISFHEHNTQERIPQLIAKLKQGMQIAQVSDAGMPSISDPGHELVNACIDAHIPVVPLPGA", "soluble on expression in E. coli": "not soluble"}
{"Sequence Text": "MSLNKLSNVTLSAEQEKLRERVLSFMRSNLSQYKSDWKHPAMFVIQGDAGTGKSVILNSLFNEIQKLSQFSPSSEDILHGTHNYLVVNHPEMLKLYIRISDSFKYISKSSLERPTSLINNLQKRKVMADVVIVDEAHLLATSKDAFKRFYGENHLKDLMSLCKVLVLVYDDKQALRMGSYWDEGSNNGATLKDFYNEIPPKSRDWYTLKQQFRVAAPQNVLNWIDQISVAGKEGHHHHHH", "soluble on expression in E. coli": "not soluble"}

###

- Test Method Notes: soluble on expression in E. coli; label from the status in PepcDB or PDB records
Quantity Kind: soluble on expression in E. coli

Consider the following illustrative entries.
{"Sequence Text": "LFGVTSELSKDGRERIYRVEGQLFYASVEDFMAAFDFREALDRVVIDVSRAHIWDISSVQALDMAVLKFRREGAEVRIVGMNEASETMVDRLAIHDKPGAMDRLVAH", "Quantity Kind": "soluble on expression in E. coli", "Reading": "not soluble"}
{"Sequence Text": "MYEGTLSMAVQSLGQAVNYCKRFGPRLVATKMLYKLLPQAGFSVCRQIEEYLKHYYLPDVAYHKTEFCGKIQADAPIWVMWWQGEERMPDVVRLAVASMRRFAGRRPVMLITKDNYHDYAKRSVDFYRYVEHGAISLTHFSDYVRFDLLHKYGGFWLDATLLMTAPIPDFVNDLRLFSIKHGTIRPGEQWSPMWSRNWTAYCWGGCAGDPFFDFMLRFFERYHEREGSVMIDYFLIDRIISVAYQEFVDVRNTIDAIPVNNVDVLTSPIVNTASINHRSDDNGTFLHKLSWKEPPQPDCGNGQRSWFGQLLDQYGIRLEHHHHHH", "Quantity Kind": "soluble on expression in E. coli", "Reading": "not soluble"}
{"Sequence Text": "GPGSMPSKRATRVQKLHEGTGDDNLPVFSIFIEKEGEGQYGRIDIEIFVNKVPKSCEIFLHSCPAALTGDKRVSKPSLVRQHRFLRLTNEGLQVGERPVSRLVSLSDIENEIGRVNHGIGVVSLCRSSNTFDESFFFCLTDNRTELESLDKRHTAFGRVVYGLELLFLLRDALIPYVKEGCVIEGSPYAISDILPKAAT", "Quantity Kind": "soluble on expression in E. coli", "Reading": "soluble"}
{"Sequence Text": "MRYSDGRYEADIDITVEEWKSMLQNPKIFGPKYLDMILKWYYEIDHRATSQAIMAKYPSELKGTPYNGYVIGLTNRIIKYLNRFEVIGTQGNESKFIVPFEGWYEDYKEGNHFVWKVRDELVQAIEELGLVDEKKFPSEEEELKSYSIENRKDGKIIMRYTTQYERNPINRRNAIRIHGTVCQGCGFDFEKVYGEIGKDYIEVHHIKPLYEGGGSVPINAETDLICVCANCHRMIHRRKDKVLSLKELQKLLLANKNLEHHHHHH", "Quantity Kind": "soluble on expression in E. coli", "Reading": "soluble"}

QUERY: What measured soluble on expression in E. coli goes with MGSDKIHHHHHHTHSVETPYGSVTFTVYGTPKPKRPAIFTYHDVGLNYKSCFQPLFRFGDMQEIIQNFVRVHVDAPGMEEGAPVFPLGYQYPSLDQLADMIPCILQYLNFSTIIGVGVGAGAYILSRYALNHPDTVEGLVLINIDPNAKGWMDWAAHKLTGLTSSIPDMILGHLFSQEELSGNSELIQKYRGIIQHAPNLENIELYWNSYNNRRDLNFERGGETTLKCPVMLVVGDQAPHEDAVVECNSKLDPTQTSFLKMADSGGQPQLTQPGKLTEAFKYFLQG ?
RESULT: soluble

QUERY: Also check QVQLQQPGAELVKPGASVKLSCKASGYTFTSDWIHWVKQRPGHGLEWIGEIIPSYGRANYNEKIQKKATLTADKSSSTAFMQLSSLTSEDSAVYYCARERGDGYFAVWGAGTTVTVSSAKTTPPSVYPLAPGSAAQTNSMVTLGCLVKGYFPEPVTVTWNSGSLSSGVHTFPAVLQSDLYTLSSSVTVPSSSWPSETVTCNVAHPASSTKVDKKIVPRD
RESULT: soluble
